Target: recombinant TrxR (Rattus norvegicus, UniProt O89049)
Sequence (O89049 whole entry): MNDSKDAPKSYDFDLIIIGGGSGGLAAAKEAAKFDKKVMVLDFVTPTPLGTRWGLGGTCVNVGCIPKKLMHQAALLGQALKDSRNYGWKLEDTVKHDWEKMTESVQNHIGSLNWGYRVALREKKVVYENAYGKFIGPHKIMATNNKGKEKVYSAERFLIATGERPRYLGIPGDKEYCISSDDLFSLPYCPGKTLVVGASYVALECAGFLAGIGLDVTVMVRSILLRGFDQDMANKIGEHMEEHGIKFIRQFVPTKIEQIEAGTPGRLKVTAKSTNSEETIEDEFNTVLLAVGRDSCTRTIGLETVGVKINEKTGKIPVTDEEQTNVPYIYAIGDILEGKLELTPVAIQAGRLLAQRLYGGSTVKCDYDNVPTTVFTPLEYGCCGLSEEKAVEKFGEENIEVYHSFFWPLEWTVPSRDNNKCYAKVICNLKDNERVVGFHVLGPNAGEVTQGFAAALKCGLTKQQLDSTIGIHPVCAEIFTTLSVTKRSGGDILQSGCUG
Assay: Sec-independent SecTRAP activity (Juglone assay)
Conditions: compound at the concentration that achieves 100% inhibition of TrxR in the DTNB assay
I'd be grateful if you could share measured Juglone Act (% @ 100% DTNB inhibition) for these entries.
Output spec: scalar in %, unitless text.

Query: Let me know recorded Juglone Act (% @ 100% DTNB inhibition) for COc1ccc([N+](=O)[O-])c(S(=O)(=O)c2ccccn2)n1 [OT-1012] , thanks.
Result: 89.8

Query: Let me know recorded Juglone Act (% @ 100% DTNB inhibition) for CCCCCCCCS(=O)(=O)c1nc(OC)ccc1[N+](=O)[O-] [OT-1096] , thanks.
Result: 86.96

Query: Let me know recorded Juglone Act (% @ 100% DTNB inhibition) for COC(=O)CCS(=O)(=O)c1nc(OC)ccc1[N+](=O)[O-] [OT-1113] , thanks.
Result: 91.16

Query: Let me know recorded Juglone Act (% @ 100% DTNB inhibition) for CCS(=O)(=O)c1nc(OC)ccc1[N+](=O)[O-] [OT-1129] , thanks.
Result: 74.83

Query: Let me know recorded Juglone Act (% @ 100% DTNB inhibition) for O=C1C=C[C@H]2[C@@H]3C(=O)N(Cc4ccccc4)C(=O)[C@@H]3[C@@H]1N2Cc1ccccc1 (relative stereo) [OT-2056] , thanks.
Result: 107.692

Query: Let me know recorded Juglone Act (% @ 100% DTNB inhibition) for COc1ccc([N+](=O)[O-])c(S(=O)(=O)Cc2ccccc2)n1 [OT-1011] , thanks.
Result: 83.67
